# credit: ChEMBL document CHEMBL4665878

Assay: Ex vivo binding affinity to amyloid beta (1 to 42) in 3xTg-AD transgenic APP/PS1 mouse brain section assessed as binding constant after 40 mins by autoradiography
Type: tissue-based
pKd: −log10 of the molar value.
Property name: pKd

# Given smiles, Property name, Endpoint result
measured = [
    ("CSC(=S)NCCNC(=O)CCC(=O)Nc1cccc2ccccc12", "pKd", 7.80),
    ("CNc1ccc(/C=C/c2ccc(OCCOCCOCCF)cc2)cc1", "pKd", 7.80),
]
